Molecular target: cyno c-Kit (SPR) (cyno, UniProt F6V858 26-520 (rhesus entry))
Sequence (chain, as listed by the source): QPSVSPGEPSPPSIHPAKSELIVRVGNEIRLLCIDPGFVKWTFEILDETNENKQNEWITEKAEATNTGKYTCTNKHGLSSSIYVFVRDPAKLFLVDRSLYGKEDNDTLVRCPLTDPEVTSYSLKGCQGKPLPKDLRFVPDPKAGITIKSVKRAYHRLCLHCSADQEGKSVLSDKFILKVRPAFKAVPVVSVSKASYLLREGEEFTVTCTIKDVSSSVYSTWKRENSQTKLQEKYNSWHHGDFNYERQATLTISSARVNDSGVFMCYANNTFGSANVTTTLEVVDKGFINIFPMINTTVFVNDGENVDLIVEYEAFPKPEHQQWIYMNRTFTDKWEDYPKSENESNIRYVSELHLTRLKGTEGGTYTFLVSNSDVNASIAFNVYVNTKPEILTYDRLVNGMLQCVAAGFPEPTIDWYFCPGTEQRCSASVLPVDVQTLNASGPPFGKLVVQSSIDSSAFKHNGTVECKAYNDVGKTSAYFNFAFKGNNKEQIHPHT
Assay: SPR, single-cycle kinetics, Cynomolgus C-kit
readout-kind: koff (s⁻¹)
Numbers only here, please. The scale is s⁻¹.

Worked set:
MH1/F6.12 bispecific (parental, before pI engineering) (bispecific antibody, V domains shown, Knob-in-hole IgG1null bispecific with human Ckappa; also called parental bispecific MH1/F6.12) VH 1: QVQLVQSGAEVKKPGASVKVSCKASGYTFTDYYMNWVRQAPGQGLEWMGRIYPGSGNTYYAQKFQGRVTMTRDTSTSTVYMELSSLRSEDTAVYYCARGVYYYDYWGQGTLVTVSS VH 2: EVQLVQSGAEVKKPGESLKISCKGSGYRFASNWIGWVRQMPGKGLEWMGEIYPGDSNTRYSPSFQGQVTISADKSISTAYLQWSSLKASDTAMYYCARKDYYYGIMDVWGQGTTVTVSS VL: DIQMTQSPSSLSASVGDRVTITCRASQGIRTNLAWFQQKPGKAPKSLIYAASSLQSGVPSRFSGSGSGTDFTLTISSLQPEDFATYYCQQYNSYPRTFGGGTKVEIK : 0.0159
MH1_C/F6.12_D bispecific (pI-engineered) (bispecific antibody, V domains shown, Knob-in-hole IgG1null bispecific with human Ckappa) VH 1: QVQLVQSGAEVKEPGASVKVSCKASGYTFTDYYMNWVRQAPGQGLEWMGRIYPGSGNTYYAQNFQGRVTMTRDTSTSTVYMELSSLRSEDTAVYYCARGVYYYDYWGQGTLVTVSS VH 2: QVQLVQSGAEVKKPGESLKISCKGSGYRFASNWIGWVRQMPGKGLEWMGEIYPGDSNTRYSPSFQGQVTISADKSISTAYLQWSRLKASDTAMYYCARKDYYYGIMDVWGQGTTVTVSS VL: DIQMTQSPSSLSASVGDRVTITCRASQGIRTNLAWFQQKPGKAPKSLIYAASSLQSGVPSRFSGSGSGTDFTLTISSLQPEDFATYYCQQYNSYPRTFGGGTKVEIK : 0.0152
FJ2156_MH1_C x F6_12B huIgG1 KIH (bispecific antibody, V domains shown, also called MH1_C/F6.12_B) VH 1: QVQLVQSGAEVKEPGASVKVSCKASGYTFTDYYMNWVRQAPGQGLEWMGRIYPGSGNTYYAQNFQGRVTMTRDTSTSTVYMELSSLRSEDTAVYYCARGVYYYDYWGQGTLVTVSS VH 2: QVQLVQSGAEVKKPGESLKISCKGSGYRFASNWIGWVRQMPGKGLQWMGEIYPGDSNTRYSPSFQGQVTISADKSISTAYLQWSSLKASDTAMYYCARKDYYYGIMDVWGQGTTVTVSS VL: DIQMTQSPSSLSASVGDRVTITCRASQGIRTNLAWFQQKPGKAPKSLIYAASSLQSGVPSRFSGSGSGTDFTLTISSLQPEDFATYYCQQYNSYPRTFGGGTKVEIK : 0.0155
FJ2156_MH1_A x F6_12C huIgG1 KIH (bispecific antibody, V domains shown, also called MH1_A/F6.12_C) VH 1: EVQLVQSGAEVKKPGASVKVSCKASGYTFTDYYMNWVRQAPGQGLEWMGRIYPGSGNTYYAQKFQDRVTMTRDTSTSTVYMELSSLRSEDTAVYYCARGVYYYDYWGQGTLVTVSS VH 2: QVQLVQSGAEVKKPGESLKISCKGSGYRFASNWIGWVRQMPGKGLEWMGEIYPGDSNTRYRPSFQGQVTISADKSISTAYLQWSSLKASDTAMYYCARKDYYYGIMDVWGQGTTVTVSS VL: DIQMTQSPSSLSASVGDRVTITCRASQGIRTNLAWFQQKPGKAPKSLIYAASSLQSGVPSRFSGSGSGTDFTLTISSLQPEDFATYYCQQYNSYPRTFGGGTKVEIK : 0.0272

Query binder follows.
Problem: Field request: koff | item: FJ2156_MH1_A x F6_12B huIgG1 KIH (bispecific antibody, V domains shown, also called MH1_A/F6.12_B) VH 1: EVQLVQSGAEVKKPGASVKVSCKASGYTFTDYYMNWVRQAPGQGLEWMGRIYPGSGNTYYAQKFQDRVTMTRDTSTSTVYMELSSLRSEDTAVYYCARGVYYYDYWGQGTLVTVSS VH 2: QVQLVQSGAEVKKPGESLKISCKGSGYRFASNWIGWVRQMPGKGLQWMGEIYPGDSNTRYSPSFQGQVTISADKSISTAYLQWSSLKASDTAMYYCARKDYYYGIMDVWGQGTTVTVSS VL: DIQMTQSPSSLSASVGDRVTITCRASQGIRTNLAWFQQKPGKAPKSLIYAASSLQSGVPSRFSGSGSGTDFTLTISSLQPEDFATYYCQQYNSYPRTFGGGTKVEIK
Solution: 0.0277
